Target: UniProt P56524
Test: Inhibition of flag-tagged HDAC4 by Biomol assay
REPORTED PROPERTY: IC50 (nM)
Kindly answer with a numeric value in nM, unit omitted.

query: Dear colleague, please send me the reported IC50 for `CCC(=O)CCCCC[C@H](NC(=O)[C@H]1CCCCN1C(=O)[C@@H](NC(=O)[C@@H](N)Cc1cn(OC)c2ccccc12)[C@@H](C)CC)C(=O)O` when you can.
result: 88

---

Molecular target: Histone deacetylase 4 (Homo sapiens, UniProt P56524)
Sequence (P56524 whole entry): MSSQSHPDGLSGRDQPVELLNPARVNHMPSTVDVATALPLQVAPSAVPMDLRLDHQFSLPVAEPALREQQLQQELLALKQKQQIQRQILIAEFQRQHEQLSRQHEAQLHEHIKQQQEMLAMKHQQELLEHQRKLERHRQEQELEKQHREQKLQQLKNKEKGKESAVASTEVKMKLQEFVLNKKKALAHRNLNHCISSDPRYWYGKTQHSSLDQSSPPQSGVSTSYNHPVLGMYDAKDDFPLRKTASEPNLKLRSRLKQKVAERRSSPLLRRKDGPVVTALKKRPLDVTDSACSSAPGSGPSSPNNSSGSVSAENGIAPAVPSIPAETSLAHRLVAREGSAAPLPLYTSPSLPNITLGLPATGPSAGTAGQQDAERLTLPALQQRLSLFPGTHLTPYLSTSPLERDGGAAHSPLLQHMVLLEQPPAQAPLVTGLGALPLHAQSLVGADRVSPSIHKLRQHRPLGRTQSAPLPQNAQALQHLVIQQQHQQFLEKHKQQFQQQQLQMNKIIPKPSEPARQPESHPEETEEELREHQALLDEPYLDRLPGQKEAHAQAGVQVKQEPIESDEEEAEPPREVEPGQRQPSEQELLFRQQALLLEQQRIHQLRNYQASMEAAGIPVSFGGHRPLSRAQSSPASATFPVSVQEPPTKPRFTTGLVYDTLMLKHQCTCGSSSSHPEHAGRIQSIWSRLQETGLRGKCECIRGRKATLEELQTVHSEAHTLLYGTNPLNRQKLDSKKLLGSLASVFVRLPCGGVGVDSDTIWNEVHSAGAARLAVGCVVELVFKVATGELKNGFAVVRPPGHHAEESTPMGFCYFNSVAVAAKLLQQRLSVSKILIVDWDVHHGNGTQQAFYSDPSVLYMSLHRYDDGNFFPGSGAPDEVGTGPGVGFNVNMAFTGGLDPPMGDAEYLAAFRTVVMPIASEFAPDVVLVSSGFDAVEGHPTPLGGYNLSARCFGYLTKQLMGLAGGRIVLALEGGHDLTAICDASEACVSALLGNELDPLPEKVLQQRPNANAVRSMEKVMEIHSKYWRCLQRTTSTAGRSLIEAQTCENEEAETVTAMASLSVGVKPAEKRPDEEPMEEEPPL
Assay: Inhibition of flag-tagged HDAC4 by pull-down assay
REPORTED PROPERTY: pIC50
Quick note: pIC50 means taking -log10 of the concentration in moles per liter.

query: Please look at this compound and report its pIC50: `CCC(=O)CCCCC[C@H](NC(=O)[C@H]1CCCCN1C(=O)[C@@H](NC(=O)[C@@H](N)Cc1cn(OC)c2ccccc12)[C@@H](C)CC)C(=O)O`
result: 6.82
